Experiment: viability of HCT116 lacking mutant beta-catenin – cell-based, DP diverse set, validation, pilot screen (AID 1004)
Settings: HCT116 (mutant beta-catenin deleted) viability, CellTiter-Glo, 60 h; at 10 µM; hits give low values
Each record here notes measured viability.
API: value field is a number in %; no unit string.

Below: 8 compounds and their reported viability.
| compound | viability [%] |
| --- | --- |
| COc1ccc(CCN2CCC(Nc3nc4ccccc4n3Cc3ccc(F)cc3)CC2)cc1 | 44.6 |
| NC(=NCc1ccccc1)NC(=O)c1nc(Cl)c(N)nc1N | 88.8 |
| COc1ccc(CC(N)C(=O)N[C@H]2[C@@H](O)[C@H](n3cnc4c(N(C)C)ncnc43)O[C@@H]2CO)cc1 (stereo not given in full) | 7.16 |
| CC1(COc2ccc(CC3SC(=O)NC3=O)cc2)CCCCC1 (stereo not given) | 97 |
| CN1CCN(C2Cc3ccccc3Sc3ccc(S)cc32)CC1 (stereo not given) | 79.5 |
| CC1(C)[C@@H](O[C@H]2O[C@H](C(=O)O)[C@@H](O)[C@H](O)[C@H]2O[C@@H]2O[C@H](C(=O)O)[C@@H](O)[C@H](O)[C@H]2O)CC[C@]2(C)[C@H]3C(=O)C=C4[C@@H]5C[C@@](C)(C(=O)O)CC[C@]5(C)CC[C@@]4(C)[C@]3(C)CC[C@@H]12 | 101 |
| COc1ccc(Cl)cc1C(=O)NCCc1ccc(S(=O)(=O)NC(=O)NC2CCCCC2)cc1 | 97 |
| CSc1ccc(/C=C2/C(C)=C(CC(=O)O)c3cc(F)ccc32)cc1 | 96 |

Now let's try a different one.
**Query** # query: viability of entry CC(C)=CCC[C@](C)(O[C@@H]1O[C@H](CO)[C@@H](O)[C@H](O)[C@H]1O)[C@H]1CC[C@]2(C)[C@@H]1[C@H](O)C[C@@H]1[C@@]3(C)CC[C@H](O[C@@H]4O[C@H](CO)[C@@H](O)[C@H](O)[C@H]4O[C@@H]4O[C@H](CO)[C@@H](O)[C@H](O)[C@H]4O)C(C)(C)[C@@H]3[C@@H](O)C[C@]12C
**Result** 93.8

---

Experiment: viability of HCT116 lacking mutant beta-catenin – cell-based, DP diverse set, validation, pilot screen (AID 1004)
Conditions: HCT116 (mutant beta-catenin deleted) viability, CellTiter-Glo, 60 h; at 10 µM
Activity calls are given as the source filed them.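 The calls were made as follows: active = viability at 10 µM of 29.74% or lower, 3 SD below the compound median; inactive = the rest.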
Respond with a class label; see true for active, false for inactive

**Query** What outcome does the record of this test show for O=C1OC(c2cc(I)c(O)c(I)c2)(c2cc(I)c(O)c(I)c2)c2ccccc21 ?
**Result** false

**Query** Hi, do you know how C[C@@H]1C[C@@H]([C@@H](C)CC2CC(=O)NC(=O)C2)C(=O)[C@@H](C)C1 came out in this test?
**Result** true

**Query** Recorded test outcome, item O=C(c1ccc(OCCN2CCCCC2)cc1)c1c(-c2ccc(O)cc2)sc2cc(O)ccc12
**Result** false

**Query** Dear all, I need the recorded test outcome for C[C@H](CS)C(=O)N1CCC[C@H]1C(=O)O , thank you.
**Result** false

**Query** Test call for this molecule, please: C=C1C(=O)[C@]23[C@H](O)[C@H]1CC[C@H]2[C@@]12COC3(O)[C@H](O)[C@@H]1C(C)(C)CC[C@@H]2O
**Result** false

---

Quick reference: viability of the listed items.
Experiment: viability of HCT116 lacking mutant beta-catenin – cell-based, DP diverse set, validation, pilot screen (AID 1004)
Conditions: HCT116 (mutant beta-catenin deleted) viability, CellTiter-Glo, 60 h; at 10 µM; hits give low values
Use % as the unit, but write only the number.

Guide cases for viability, answers given:
| compound | test_result |
| --- | --- |
| CC1(C)OC2CC(=O)OCC23C1CC(=O)C1(C)C3CC[C@@]2(C)[C@H](c3ccoc3)OC(=O)C3OC312 (some centres not stated) | 93 |
| CC1(C)CCC[C@@](C)([C@H]2CC[C@]3(C)[C@@H]2[C@H](O)C[C@@H]2[C@@]4(C)CC[C@H](O)C(C)(C)[C@@H]4[C@@H](O)C[C@]23C)O1 | 97.9 |
| C[C@H](CCC(=O)O)[C@H]1CC[C@H]2[C@@H]3CC[C@@H]4C[C@H](O)CC[C@]4(C)[C@H]3CC[C@]12C | 102 |
| CC[C@@]1([C@@H]2O[C@@H]([C@H]3O[C@@](O)(CO)[C@H](C)C[C@@H]3C)C[C@@H]2C)CC[C@H]([C@]2(C)CC[C@]3(C[C@H](O)[C@@H](C)[C@@H]([C@@H](C)[C@@H](OC)C(C)C(=O)O)O3)O2)O1 (some centres not stated) | 93 |
| Nc1ccn([C@H]2CC[C@@H](CO)O2)c(=O)n1 | 102 |

**Query** Please report the recorded viability for COC(=O)C1=C(C)NC(C)=C(C(=O)OCCNCc2ccccc2)C1c1cccc([N+](=O)[O-])c1 (configuration not stated) .
**Result** 79.3

**Query** Query (compound): CC(C)NCC(O)COc1cccc2ccccc12 (configuration not stated) ; field requested: viability
**Result** 94.6

---

Assay: viability of HCT116 lacking mutant beta-catenin – cell-based, DP diverse set, validation, pilot screen (AID 1004)
Conditions: HCT116 (mutant beta-catenin deleted) viability, CellTiter-Glo, 60 h; at 10 µM
Activity calls are given as the source filed them.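 The calls were made as follows: active = viability at 10 µM of 29.74% or lower, 3 SD below the compound median; inactive = the rest.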
// allowed return values: active, inactive

**Query** Given c1ccc2nc3ccccc3cc2c1 , state the outcome it received in this test.
**Result** inactive

**Query** Hey, what did the test say about CC(C)C[C@H]1C(=O)N2CCC[C@H]2[C@]2(O)O[C@](NC(=O)[C@@H]3C=C4c5cccc6[nH]c(Br)c(c56)C[C@H]4N(C)C3)(C(C)C)C(=O)N12 ?
**Result** inactive

**Query** Record lookup: outcome of this test for COc1c(C)c2c(c(O)c1C/C=C(\C)CCC(=O)O)C(=O)OC2 ?
**Result** inactive

**Query** Hi, sorry to bother you, what did the test record for COc1ccc(C2CNC(=O)C2)cc1OC1CCCC1 (centres undefined) ?
**Result** inactive

**Query** Which outcome was assigned to Nc1c(N=Nc2ccc(-c3ccc(N=Nc4cc(S(=O)(=O)O)c5ccccc5c4N)cc3)cc2)cc(S(=O)(=O)O)c2ccccc12 in this test?
**Result** inactive

**Query** Just curious, what result did COc1cccc2c1C(=O)c1c(O)c3c(c(O)c1C2=O)C[C@@](O)(C(=O)CO)C[C@@H]3OC1C[C@@H](N)[C@H](O)[C@H](C)O1 (some centres undefined) get here?
**Result** active

**Query** # fetch the recorded call for COC(=O)Nc1nc2ccc(C(=O)c3cccs3)cc2[nH]1 here
**Result** inactive

**Query** Assay result, entry C[C@]12CC[C@@H]3c4ccc(O)cc4CC[C@H]3[C@@H]1CC[C@H]2O — outcome?
**Result** inactive

**Query** Look up the recorded call for C/C(=C\CNc1ncnc2c1ncn2[C@@H]1O[C@H](CO)[C@@H](O)[C@H]1O)CO in this test.
**Result** inactive

**Query** Field: outcome | Entry: CC[n+]1c(-c2ccccc2)c2cc(N)ccc2c2ccc(N)cc21
**Result** inactive

**Query** Which outcome did this test record for the compound CC(C)=CCC/C(C)=C/COc1ccc2ccc(=O)oc2c1 ?
**Result** inactive

**Query** // return assay outcome for Cc1ccc2c(c1)C(=O)C1(O)CCN(c3ccccc3)C1=N2 (centres undefined)
**Result** inactive

**Query** Could you kindly confirm the outcome this assay logged for CN(C)c1ccc(/C=C2\C(=O)Nc3ccccc32)cc1 ?
**Result** inactive

**Query** Please indicate how the test categorized Cc1c(C)c2c(c(C)c1O)CCC(C)(COc1ccc(CC3SC(=O)NC3=O)cc1)O2 (centres undefined) .
**Result** inactive

**Query** Tell me the recorded outcome of this test for Cc1cc2c(C(C)C)c(O)c(O)c(C=O)c2c(O)c1-c1c(C)cc2c(C(C)C)c(O)c(O)c(C=O)c2c1O .
**Result** active

**Query** Lab log entry: C=C(C)C1CC=C(C)C(O)C1 (centres undefined) — outcome as called in the assay?
**Result** inactive

**Query** Check the results log: what was the call for COc1ccc2c(c1)c(CC(=O)O)c(C)n2C(=O)c1ccc(Cl)cc1 ?
**Result** inactive

**Query** Hey, what did the test say about CC(=O)N[C@H]1C(O[C@@H]2O[C@H](C[C@@H](O)[C@H]3O[C@@H](N4CCC(=O)NC4=O)[C@H](O)[C@@H]3O)[C@H](O)[C@H](O)[C@H]2NC(=O)/C=C/CCCCCCCCCCC(C)C)OC(CO)[C@@H](O)[C@@H]1O (some centres undefined) ?
**Result** inactive

**Query** Entry NC(=O)c1cccc(N)c1 : call = ?
**Result** inactive

Value source: PubChem BioAssay AID1004
